These measurements were taken from patent US20220168427A1.

Assay system HSP90α (Homo sapiens, UniProt P07900); read-out recorded as IC50.

As a guide, the following entries are already answered.
# compound, IC50
rows = [
    ("Cc1sc2c(c1C)C(c1ccc(Cl)cc1)=N[C@@H](CC(=O)N[C@H](C)c1cccc(CN3CCC(Cc4ccc(-n5c(C(=O)NCC(F)(F)F)nnc5-c5cc(C(C)C)c(O)cc5O)cc4)CC3)c1)c1nnc(C)n1-2 [Compound 97, trifluoroacetic acid]", "0.1 to 1 µM"),
    ("CCCc1cc(C(=O)N2Cc3ccc(CN4CCN(C(=O)C[C@@H]5N=C(c6ccc(Cl)cc6)c6c(sc(C)c6C)-n6c(C)nnc65)CC4)cc3C2)c(O)cc1O [Compound 145]", "0.1 to 1 µM"),
]

Query compound follows.
Fill in the recorded IC50 for this compound, with HSP90α (Homo sapiens, UniProt P07900) as test system: Cc1sc2c(c1C)C(c1ccc(Cl)cc1)=N[C@@H](CC(=O)N1CCC(CN3CCC(Cc4ccc(-n5c(O)nnc5-c5cc(C(C)C)c(O)cc5O)cc4)CC3)CC1)c1nnc(C)n1-2 [Compound 94, trifluoroacetic acid]
< 0.1 µM

###

# subjectOfTest: BRD4 (BD1+BD2) (Homo sapiens)
# Construct: 1.8 μg/ml recombinant BRD4 (BD1+BD2 domains) protein
# measurementConditions: read-out: BRD4 Binding Potency
pIC50: −log10 of the molar value. Where a name gives a salt, the structure may show the parent alone.
Measured pIC50, listed per entry.

# compound, subjectOfTest, reportedMeasurement
rows = [
    ("Cc1sc2c(c1C)C(c1ccc(Cl)cc1)=N[C@@H](CC(=O)N1CCC(CN3CCN(Cc4ccc(-n5c(S)nnc5-c5cc(C(C)C)c(O)cc5O)cc4)CC3)CC1)c1nnc(C)n1-2", "BRD4 (BD1+BD2) (Homo sapiens)", "< 6.00"),
    ("CCc1cc(-c2nnc(C(N)=O)n2-c2ccc(CN3CCN(CC4CCN(C(=O)C[C@@H]5N=C(c6ccc(Cl)cc6)c6c(sc(C)c6C)-n6c(C)nnc65)CC4)CC3)cc2)c(O)cc1O [Compound 106, trifluoroacetic acid]", "BRD4 (BD1+BD2) (Homo sapiens)", "6.00 to 7.00"),
    ("Cc1sc2c(c1C)C(c1ccc(Cl)cc1)=N[C@@H](CC(=O)NCCOCCOCCOc1ccc(-n3c(S)nnc3-c3cc(C(C)C)c(O)cc3O)cc1)c1nnc(C)n1-2", "BRD4 (BD1+BD2) (Homo sapiens)", "< 6.00"),
    ("CCc1cc(-c2nnc(C(=O)NCC(F)(F)F)n2-c2ccc(CN3CCN(CC4CCN(C(=O)C[C@@H]5N=C(c6ccc(Cl)cc6)c6c(sc(C)c6C)-n6c(C)nnc65)CC4)CC3)cc2)c(O)cc1O.Cl [Compound 78, hydrochloride]", "BRD4 (BD1+BD2) (Homo sapiens)", "6.00 to 7.00"),
    ("Cc1sc2c(c1C)C(c1ccc(Cl)cc1)=N[C@@H](CC(=O)NCCOCc1ccc(-n3c(O)nnc3-c3cc(C(C)C)c(O)cc3O)cc1)c1nnc(C)n1-2", "BRD4 (BD1+BD2) (Homo sapiens)", "< 6.00"),
]

What value of pIC50 has been reported for the following compound? CCNC(=O)c1noc(-c2cc(C(C)C)c(O)cc2O)c1-c1ccc(CN2CCN(CC3CCN(C(=O)C[C@@H]4N=C(c5ccc(Cl)cc5)c5c(sc(C)c5C)-n5c(C)nnc54)CC3)CC2)cc1 [Compound 126, hydrochloride]
6.00 to 7.00

What value of pIC50 has been reported for the following compound? `CCc1cc(-c2nnc(C(=O)NCC(F)(F)F)n2-c2ccc(CC3CCN(Cc4ccc(CNC(=O)C[C@@H]5N=C(c6ccc(Cl)cc6)c6c(sc(C)c6C)-n6c(C)nnc65)cc4)CC3)cc2)c(O)cc1O`
6.00 to 7.00

What value of pIC50 has been reported for the following compound? `CCc1cc(-c2nnc(O)n2-c2ccc(CN3CCC(C(=O)N4CCC(CNCC[C@@H]5N=C(c6ccc(Cl)cc6)c6c(sc(C)c6C)-n6c(C)nnc65)CC4)CC3)cc2)c(O)cc1O`
6.00 to 7.00

What value of pIC50 has been reported for the following compound? `Cc1sc2c(c1C)C(c1ccc(Cl)cc1)=N[C@@H](CC(=O)NCCOCCOc1ccc(-n3c(S)nnc3-c3cc(C(C)C)c(O)cc3O)cc1)c1nnc(C)n1-2`
6.00 to 7.00

###

Measured IC50, listed per entry.
# subjectOfTest: BRD4 (BD1+BD2) (Homo sapiens, UniProt O60885)
# Construct: 1.8 μg/ml recombinant BRD4 (BD1+BD2 domains) protein
# measurementConditions: read-out: BRD4 Binding Potency

As a guide, the following entries are already answered.
# compound, subjectOfTest, IC50
records = [
    ("Cc1sc2c(c1C)C(c1ccc(Cl)cc1)=N[C@@H](CC(=O)N1CCC(CN3CCN(Cc4ccc(-n5c(O)nnc5-c5cc(C(C)C)c(O)cc5O)cc4)CC3)CC1)c1nnc(C)n1-2.Cl [Compound 74, hydrochloride]", "BRD4 (BD1+BD2) (Homo sapiens, UniProt O60885)", "100 to 1000 nM"),
    ("Cc1sc2c(c1C)C(c1ccc(Cl)cc1)=N[C@@H](CC(=O)NCC(=O)NCCOc1ccc(-n3c(O)nnc3-c3cc(C(C)C)c(O)cc3O)cc1)c1nnc(C)n1-2 [Compound 54]", "BRD4 (BD1+BD2) (Homo sapiens, UniProt O60885)", "100 to 1000 nM"),
]

Query compound follows.
What value of IC50 has been reported for the following compound? CCc1cc(-c2nnc(O)n2-c2ccc(CC3CCN(CC4CCN(C(=O)C[C@@H]5N=C(c6ccc(Cl)cc6)c6c(sc(C)c6C)-n6c(C)nnc65)CC4)CC3)cc2)c(O)cc1O [Compound 88, formic acid]
100 to 1000 nM

###

# protocolText: Pharmacokinetics and Tissue Distribution in the MV4-11 xenograft model
# Format: in vivo, mice
# measurementConditions: female, CB-17 SCID, mouse; tumor; 5 mg/kg single intravenous dose
# Protocol: Pharmacokinetics and Tissue Distribution 15 female CB-17 SCID mice (treated in accordance with AAALAC animal welfare guidelines) were weighed and administered 5 mg/kg of compound 074 by a single intravenous injection. 0.10 mL of blood was collected from each mouse by submandibular vein and sodium heparin was added as an anticoagulant. […] Pharmacokinetic parameters were calculated using Phoenix WinNonlin7.0 software.
measurementName: half-life (h)
Please give a number only; it is taken to be in h.

What value of half-life has been reported for the following compound? `Cc1sc2c(c1C)C(c1ccc(Cl)cc1)=N[C@@H](CC(=O)N1CCC(CN3CCN(Cc4ccc(-n5c(O)nnc5-c5cc(C(C)C)c(O)cc5O)cc4)CC3)CC1)c1nnc(C)n1-2.Cl`
32.1

###

# protocolText: Pharmacokinetics and Tissue Distribution in the MV4-11 xenograft model
# Type: in vivo, mice
# measurementConditions: female, CB-17 SCID, mouse; liver; 5 mg/kg single intravenous dose
# Procedure: Pharmacokinetics and Tissue Distribution 15 female CB-17 SCID mice (treated in accordance with AAALAC animal welfare guidelines) were weighed and administered 5 mg/kg of compound 074 by a single intravenous injection. 0.10 mL of blood was collected from each mouse by submandibular vein and sodium heparin was added as an anticoagulant. […] Pharmacokinetic parameters were calculated using Phoenix WinNonlin7.0 software.
measurementName: half-life
The answer consists of two parts: a number and, after it, its unit.

What value of half-life has been reported for the following compound? `Cc1sc2c(c1C)C(c1ccc(Cl)cc1)=N[C@@H](CC(=O)N1CCC(CN3CCN(Cc4ccc(-n5c(O)nnc5-c5cc(C(C)C)c(O)cc5O)cc4)CC3)CC1)c1nnc(C)n1-2.Cl`
3.37 h

###

Measured pIC50, listed per entry.
# subjectOfTest: HSP90α (Homo sapiens, UniProt P07900)
pIC50: −log10 of the molar value.

As a guide, the following entries are already answered.
# compound, subjectOfTest, pIC50
measured = [
    ("CCc1cc(-c2nnc(C(=O)NCC(F)(F)F)n2-c2ccc(CC3CCN(CC4CCN(C(=O)C[C@@H]5N=C(c6ccc(Cl)cc6)c6c(sc(C)c6C)-n6c(C)nnc65)CC4)CC3)cc2)c(O)cc1O", "HSP90α (Homo sapiens, UniProt P07900)", "6.00 to 7.00"),
    ("CCc1cc(-c2nnc(O)n2-c2ccc(CN3CCC(C(=O)N4CCC(CNCC[C@@H]5N=C(c6ccc(Cl)cc6)c6c(sc(C)c6C)-n6c(C)nnc65)C4)CC3)cc2)c(O)cc1O (stereo partly drawn)", "HSP90α (Homo sapiens, UniProt P07900)", "6.00 to 7.00"),
]

What value of pIC50 has been reported for the following compound? `COc1cccc(-c2cc(C(=O)Nc3ccc(-c4ccc(OC5CCN(C)CC5)cc4OCCN(C)C(=O)C[C@@H]4N=C(c5ccc(Cl)cc5)c5c(sc(C)c5C)-n5c(C)nnc54)cc3)ccc2OC)c1`
< 6.00

What value of pIC50 has been reported for the following compound? `Cc1cc(-c2nnc(O)n2-c2ccc(CN3CCN(CC4CCN(C(=O)C[C@@H]5N=C(c6ccc(Cl)cc6)c6c(sc(C)c6C)-n6c(C)nnc65)CC4)CC3)cc2)c(O)cc1O`
6.00 to 7.00

What value of pIC50 has been reported for the following compound? CC[C@@H](C)Nc1cc(C(=O)NC2C[C@H]3CC[C@H](C2)N3c2ccc(C(=O)c3ccc(CN4CCN(CC5CCN(C(=O)C[C@@H]6N=C(c7ccc(Cl)cc7)c7c(sc(C)c7C)-n7c(C)nnc76)CC5)CC4)cc3)cn2)c(C)cc1C(N)=O (stereo partly drawn)
< 6.00

What value of pIC50 has been reported for the following compound? `CCc1cc(-c2nnc(O)n2-c2ccc(CN3CCN(CC4CCN(CC[C@@H]5N=C(c6ccc(Cl)cc6)c6c(sc(C)c6C)-n6c(C)nnc65)CC4)CC3)cc2)c(O)cc1O`
> 7.00

What value of pIC50 has been reported for the following compound? `Cc1cc(-c2nnc(C(=O)NCCN3CCCCC3)n2-c2ccc(CN3CCN(CC4CCN(C(=O)C[C@@H]5N=C(c6ccc(Cl)cc6)c6c(sc(C)c6C)-n6c(C)nnc65)CC4)CC3)cc2)c(O)cc1O`
6.00 to 7.00

What value of pIC50 has been reported for the following compound? `CCc1cc(-c2nnc(C(=O)NCC(F)(F)F)n2-c2ccc(CC3CCN(Cc4ccc(CNC(=O)C[C@@H]5N=C(c6ccc(Cl)cc6)c6c(sc(C)c6C)-n6c(C)nnc65)cc4)CC3)cc2)c(O)cc1O`
6.00 to 7.00

What value of pIC50 has been reported for the following compound? Cc1sc2c(c1C)C(c1ccc(Cl)cc1)=N[C@@H](CC(=O)N1CCC(CN3CCN(Cc4ccc(-n5c(O)nnc5-c5cc(C(C)C)c(O)cc5O)cc4)CC3)CC1)c1nnc(C)n1-2 [Compound 40, trifluoroacetic acid]
> 7.00
